- target_system: T1, human GITR (human, UniProt Q9Y5U5 26-241)
- T1 sequence: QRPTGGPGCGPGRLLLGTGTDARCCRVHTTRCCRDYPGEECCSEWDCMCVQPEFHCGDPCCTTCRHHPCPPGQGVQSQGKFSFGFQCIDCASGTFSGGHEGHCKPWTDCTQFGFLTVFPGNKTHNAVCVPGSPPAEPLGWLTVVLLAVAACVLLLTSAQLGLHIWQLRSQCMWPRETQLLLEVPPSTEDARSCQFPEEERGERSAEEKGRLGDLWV
- assay_name: cell-based or functional assay
The following binders are listed with their measured Proliferation (Fold over CD3) values.
Use fold over CD3 as the unit, but write only the number.

[[record]]
binder = "41G5 (antibody, human IgG1, kappa, V domains shown, Parental fully human antibody; also called Ab7; SS-12428) VH: QVQLVESGGGVVQPGRSLRLSCAASGFTFSSYGMHWVRQAPGKGLEWVAVIWYPGSNKYYADSVKGRFTISRDNSKNTLYLQMNSLRAEDTAVYYCARGGELGRYYYYGMDVWGQGTTVTVSS VL: DIQMTQSPSSLSASVGDRVTVTCRASQGIRNDLGWYQQKPGKAPKRLIYAASSLQSGVPSRFSGSGSGTEFTLTISSLQPEDFATYYCLQHNNYPWTFGQGTKVDIKR"
units_of_measure = "fold over CD3"
reported_measurement = 3.7


The binder identified as 5H7v18 (antibody, human IgG1, kappa, V domains shown, Engineered variant; also called Ab36; SS-16928) VH: QVQLQESGPGLVKPSETLSLTCTVSGGSISSGGYFWSWIRQPPGKGLEWIGYIYYSGTTYYNPSLKSRVTISIDTSKNQFSLKLSSVTAADTAVYYCARDLFYYDSSGPRGFEPWGQGTLVTVSS VL: EIVLTQSPGTLSLSPGERATLSCRASQTVSSNYLAWYQQKPGQAPRLLIYGSSTRATGIPDRFSGSGSGTDFTLTISRLEPEDFAVYYCQQYDTSPWTFGQGTKVEIKR registered its Proliferation (Fold over CD3) at 2.7

The binder identified as 41G5v3 (antibody, human IgG1, kappa, V domains shown, Engineered variant; also called Ab57; SS-16953) VH: QVQLVESGGGVVQPGRSLRLSCAASGFTFSSYGMHWVRQAPGKGLEWVAVIWYPGSNKYYADTVKGRFTISRDNSKNTLYLQMNSLRAEDTAVYYCARGGELGRYYYYGMDVWGQGTTVTVSS VL: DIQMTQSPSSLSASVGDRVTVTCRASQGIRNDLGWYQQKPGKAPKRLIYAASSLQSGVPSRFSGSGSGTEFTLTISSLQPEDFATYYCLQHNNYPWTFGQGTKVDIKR registered its Proliferation (Fold over CD3) at 3.4

The binder identified as 5H7v1 (antibody, human IgG1, kappa, V domains shown) VH: QVQLQESGPGLVKPSETLSLTCTVSGGSISSGGYFWSWIRQPPGKGLEWIGYIYYSGTTYYNPSLKSRVTISIDTSKNQFSLKLSSVTAADTAVYYCARDLFYYESSGPRGFDPWGQGTLVTVSS VL: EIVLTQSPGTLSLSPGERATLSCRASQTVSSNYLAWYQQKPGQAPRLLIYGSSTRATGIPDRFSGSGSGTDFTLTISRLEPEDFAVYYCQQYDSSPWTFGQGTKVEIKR registered its Proliferation (Fold over CD3) at 1

The binder identified as 5H7v11 (antibody, human IgG1, kappa, V domains shown) VH: QVQLQESGPGLVKPSETLSLTCTVSGGSISSGGYFWSWIRQPPGKGLEWIGYIYYSGTTYYNPSLKSRVTISIDTSKNQFSLKLSSVTAADTAVYYCARDLFYYDSSGPRGFDPWGQGTLVTVSS VL: EIVLTQSPGTLSLSPGERATLSCRASQTVSSNYLAWYQQKPGQAPRLLIYGSSTRATGIPDRFSGSGSGTDFTLTISRLEPEDFAVYYCQQYDTSPWTFGQGTKVEIKR registered its Proliferation (Fold over CD3) at 2

The binder identified as 5H7v3 (antibody, human IgG1, kappa, V domains shown, Engineered variant; also called Ab27; SS-16913) VH: QVQLQESGPGLVKPSETLSLTCTVSGGSISSGGYFWSWIRQPPGKGLEWIGYIYYSGTTYYNPSLKSRVTISIDTSKNQFSLKLSSVTAADTAVYYCARDLFYYDSSGPRGFEPWGQGTLVTVSS VL: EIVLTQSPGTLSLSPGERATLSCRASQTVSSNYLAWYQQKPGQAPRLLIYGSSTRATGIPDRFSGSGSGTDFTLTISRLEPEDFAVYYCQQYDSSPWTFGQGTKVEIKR registered its Proliferation (Fold over CD3) at 3.2

The binder identified as 5H7v22 (antibody, human IgG1, kappa, V domains shown, Engineered variant; also called Ab38; SS-16932) VH: QVQLQESGPGLVKPSETLSLTCTVSGGSISSGGYFWSWIRQPPGKGLEWIGYIYYSGTTYYNPSLKSRVTISIDTSKNQFSLKLSSVTAADTAVYYCARDLFYYDTSGPRGFEPWGQGTLVTVSS VL: EIVLTQSPGTLSLSPGERATLSCRASQTVSSNYLAWYQQKPGQAPRLLIYGSSTRATGIPDRFSGSGSGTDFTLTISRLEPEDFAVYYCQQYESSPWTFGQGTKVEIKR registered its Proliferation (Fold over CD3) at 1.7

The binder identified as 5H7v10 (antibody, human IgG1, kappa, V domains shown) VH: QVQLQESGPGLVKPSETLSLTCTVSGGSISSGGYFWSWIRQPPGKGLEWIGYIYYSGTTYYNPSLKSRVTISIDTSKNQFSLKLSSVTAADTAVYYCARDLFYYDSSGPRGFDPWGQGTLVTVSS VL: EIVLTQSPGTLSLSPGERATLSCRASQTVSSNYLAWYQQKPGQAPRLLIYGSSTRATGIPDRFSGSGSGTDFTLTISRLEPEDFAVYYCQQYESSPWTFGQGTKVEIKR registered its Proliferation (Fold over CD3) at 0.6

The binder identified as 33C9v5 (antibody, human IgG1, kappa, V domains shown, Engineered variant; also called Ab54; SS-16951) VH: QVQVVESGGGVVQPGRSLRLSCAASGFTFSSYGMHWVRQAPGKGLEWVSVIWYEGSNKYYADTVKGRFTISRDNSKNTLYLQMNSLRAEDTAVYYCARGGLLGYYYYYGMDVWGQGTTVTVSS VL: DIQMTQSPSSLSASVGDRVTITCRASQGIRNDLGWYQQKPGKAPKLLIYDASSLQSGVPSRFSGSGSGTEFTLTISSLQPEDFATYYCLQHHSYPWTFGQGTKVEIKR registered its Proliferation (Fold over CD3) at 2.5

The binder identified as 5H7v13 (antibody, human IgG1, kappa, V domains shown) VH: QVQLQESGPGLVKPSETLSLTCTVSGGSISSGGYFWSWIRQPPGKGLEWIGYIYYSGTTYYNPSLKSRVTISIDTSKNQFSLKLSSVTAADTAVYYCARDLFYYDTSGPRGFDPWGQGTLVTVSS VL: EIVLTQSPGTLSLSPGERATLSCRASQTVSSNYLAWYQQKPGQAPRLLIYGSSTRATGIPDRFSGSGSGTDFTLTISRLEPEDFAVYYCQQYESSPWTFGQGTKVEIKR registered its Proliferation (Fold over CD3) at 1.2

# credit: patent US20150064204A1
